Reference for the values: ChEMBL document CHEMBL3877249

The following compounds are shown together with reported inhibition values.
molecular target: UniProt:P11387; experiment: Inhibition of human DNA topoisomerase-1 at 20 uM using supercoiled pBR322 DNA as substrate after 30 mins by ethidium bromide staining based agarose gel electrophoresis relative to control
Give a bare numeral; the unit % is implied.

Example entries and their recorded answers appear below.
1. Oc1ccccc1-c1cc(-c2ccco2)nc2c1Cc1ccccc1-2    27.1
2. Oc1ccc(-c2cc(-c3ccco3)nc3c2Cc2ccccc2-3)cc1    53.5
3. c1ccc(-c2cc(-c3ccsc3)nc3c2Cc2ccccc2-3)cc1    0
4. Oc1ccc(-c2cc(-c3ccsc3)nc3c2Cc2ccccc2-3)cc1    2.5
5. c1ccc(-c2cc(-c3cccs3)nc3c2Cc2ccccc2-3)cc1    0

// next entry
Fill blank: measured inhibition of the compound Oc1cccc(-c2cc(-c3ccsc3)nc3c2Cc2ccccc2-3)c1 is ____.
0

---

molecular target: DNA topoisomerase 2-alpha (Homo sapiens) (UniProt P11388); assay: Inhibition of human DNA topoisomerase-2alpha at 100 uM using supercoiled pBR322 DNA as substrate after 30 mins by ethidium bromide staining based agarose gel electrophoresis relative to control
Sequence (P11388 whole entry): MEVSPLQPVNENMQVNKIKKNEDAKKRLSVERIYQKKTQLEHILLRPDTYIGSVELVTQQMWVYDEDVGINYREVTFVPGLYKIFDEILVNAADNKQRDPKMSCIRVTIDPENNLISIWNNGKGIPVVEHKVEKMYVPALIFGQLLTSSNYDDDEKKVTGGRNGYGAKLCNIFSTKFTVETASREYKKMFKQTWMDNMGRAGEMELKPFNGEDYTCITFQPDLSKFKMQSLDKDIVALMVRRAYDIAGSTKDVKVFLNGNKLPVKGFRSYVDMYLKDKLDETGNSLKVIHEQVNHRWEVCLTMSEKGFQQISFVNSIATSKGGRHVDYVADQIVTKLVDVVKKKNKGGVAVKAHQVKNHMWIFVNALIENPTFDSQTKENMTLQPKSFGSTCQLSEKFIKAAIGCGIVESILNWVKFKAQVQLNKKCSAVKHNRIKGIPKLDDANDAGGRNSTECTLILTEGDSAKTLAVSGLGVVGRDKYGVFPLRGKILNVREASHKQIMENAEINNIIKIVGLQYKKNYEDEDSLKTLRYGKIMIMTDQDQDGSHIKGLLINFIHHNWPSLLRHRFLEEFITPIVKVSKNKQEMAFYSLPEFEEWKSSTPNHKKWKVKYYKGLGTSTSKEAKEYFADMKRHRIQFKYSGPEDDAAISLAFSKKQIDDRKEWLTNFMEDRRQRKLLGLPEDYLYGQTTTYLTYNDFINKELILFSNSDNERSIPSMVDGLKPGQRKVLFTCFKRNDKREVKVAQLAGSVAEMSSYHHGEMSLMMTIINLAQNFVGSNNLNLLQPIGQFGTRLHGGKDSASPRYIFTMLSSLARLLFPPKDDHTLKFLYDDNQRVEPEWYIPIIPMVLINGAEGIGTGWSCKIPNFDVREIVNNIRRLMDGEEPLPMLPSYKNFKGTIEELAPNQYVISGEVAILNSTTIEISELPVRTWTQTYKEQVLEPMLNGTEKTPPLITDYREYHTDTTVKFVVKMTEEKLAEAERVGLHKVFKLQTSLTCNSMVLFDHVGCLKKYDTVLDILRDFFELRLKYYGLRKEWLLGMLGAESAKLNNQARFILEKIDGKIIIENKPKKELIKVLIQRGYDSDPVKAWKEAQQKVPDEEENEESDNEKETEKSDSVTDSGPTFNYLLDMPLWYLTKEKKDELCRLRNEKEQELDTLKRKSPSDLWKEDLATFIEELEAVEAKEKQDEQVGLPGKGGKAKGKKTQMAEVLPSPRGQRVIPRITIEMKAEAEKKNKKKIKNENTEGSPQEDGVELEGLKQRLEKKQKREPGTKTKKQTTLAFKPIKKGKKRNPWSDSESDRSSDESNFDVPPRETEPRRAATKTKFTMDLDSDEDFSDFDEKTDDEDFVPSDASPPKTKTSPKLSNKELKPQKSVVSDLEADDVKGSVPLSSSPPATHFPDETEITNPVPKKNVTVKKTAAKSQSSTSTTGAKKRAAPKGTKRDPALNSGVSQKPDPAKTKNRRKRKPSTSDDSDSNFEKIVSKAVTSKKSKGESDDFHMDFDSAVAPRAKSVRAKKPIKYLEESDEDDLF
Metric Name: inhibition (%)
Reply numerically in %, unit not repeated.

Return reported inhibition; argument: Oc1ccc(-c2cc(-c3ccco3)nc3c2Cc2ccccc2-3)cc1
95.1

// inhibition lookup, key: c1ccc(-c2cc(-c3ccoc3)nc3c2Cc2ccccc2-3)cc1
3.9

Need inhibition, item Oc1ccccc1-c1cc(-c2cccnc2)nc2c1Cc1ccccc1-2
65.5

Which measured inhibition value corresponds to c1ccc(-c2cc(-c3ccco3)nc3c2Cc2ccccc2-3)cc1 ?
41.3

Quick check: inhibition of Oc1ccc(-c2cc(-c3ccsc3)nc3c2Cc2ccccc2-3)cc1 ?
74.8

Could you share which inhibition value was measured for Oc1cccc(-c2cc(-c3ccccn3)nc3c2Cc2ccccc2-3)c1 ?
3.5

What value of inhibition has been recorded for this entry: c1ccc(-c2cc(-c3ccsc3)nc3c2Cc2ccccc2-3)cc1
0.5

Recorded inhibition for Oc1cccc(-c2cc(-c3cccnc3)nc3c2Cc2ccccc2-3)c1 , please?
18.5

# lookup: inhibition of Oc1cccc(-c2cc(-c3ccoc3)nc3c2Cc2ccccc2-3)c1
82.2

# input compound: c1ccc(-c2cc(-c3cccs3)nc3c2Cc2ccccc2-3)cc1 ; wanted: its inhibition
5.8

Which inhibition value belongs to Oc1ccc(-c2cc(-c3ccncc3)nc3c2Cc2ccccc2-3)cc1 ?
1.14

Entry Oc1ccccc1-c1cc(-c2ccncc2)nc2c1Cc1ccccc1-2 has what inhibition?
75.2

Quick one: inhibition of Oc1ccccc1-c1cc(-c2ccco2)nc2c1Cc1ccccc1-2 ?
58.7

Form field: reported inhibition of Oc1cccc(-c2cc(-c3ccncc3)nc3c2Cc2ccccc2-3)c1
49.5

Requested read-out: inhibition. Entry: Oc1ccccc1-c1cc(-c2ccoc2)nc2c1Cc1ccccc1-2
1.8

For the compound shown here, Oc1ccc(-c2cc(-c3ccoc3)nc3c2Cc2ccccc2-3)cc1 , give the reported inhibition.
61.4

Bench note: what inhibition did Oc1ccc(-c2cc(-c3cccnc3)nc3c2Cc2ccccc2-3)cc1 show?
4

I am curious: what inhibition value has been reported for Oc1ccccc1-c1cc(-c2ccsc2)nc2c1Cc1ccccc1-2 ?
50.2

Could you share which inhibition value was measured for Oc1cccc(-c2cc(-c3ccsc3)nc3c2Cc2ccccc2-3)c1 ?
75.5

# query: inhibition of entry Oc1ccccc1-c1cc(-c2ccccn2)nc2c1Cc1ccccc1-2
15.2

---

Biological target: DNA topoisomerase 1 (Homo sapiens)
Sequence (whole entry): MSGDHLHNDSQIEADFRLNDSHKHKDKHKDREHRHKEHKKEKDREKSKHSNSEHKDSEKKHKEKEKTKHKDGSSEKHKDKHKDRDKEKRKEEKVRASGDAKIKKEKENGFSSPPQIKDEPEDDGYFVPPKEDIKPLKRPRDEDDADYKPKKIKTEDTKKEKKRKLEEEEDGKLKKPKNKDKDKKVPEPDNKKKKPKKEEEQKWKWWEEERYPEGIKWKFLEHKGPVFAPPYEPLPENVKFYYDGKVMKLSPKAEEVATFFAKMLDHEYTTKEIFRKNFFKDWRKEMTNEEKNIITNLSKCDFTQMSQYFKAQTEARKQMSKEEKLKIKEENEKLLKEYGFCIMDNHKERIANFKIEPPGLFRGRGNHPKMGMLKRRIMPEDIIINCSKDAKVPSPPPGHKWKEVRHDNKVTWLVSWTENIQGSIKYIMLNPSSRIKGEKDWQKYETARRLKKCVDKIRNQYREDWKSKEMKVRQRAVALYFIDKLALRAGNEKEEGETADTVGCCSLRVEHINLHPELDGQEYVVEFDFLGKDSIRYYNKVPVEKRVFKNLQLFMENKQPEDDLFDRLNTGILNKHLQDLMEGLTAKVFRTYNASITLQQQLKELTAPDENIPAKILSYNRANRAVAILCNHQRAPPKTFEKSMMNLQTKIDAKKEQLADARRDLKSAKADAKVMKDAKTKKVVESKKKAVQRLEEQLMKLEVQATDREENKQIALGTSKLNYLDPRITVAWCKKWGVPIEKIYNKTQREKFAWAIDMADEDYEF
Assay: Inhibition of human DNA topoisomerase-1 at 100 uM using supercoiled pBR322 DNA as substrate after 30 mins by ethidium bromide staining based agarose gel electrophoresis relative to control
Metric Name: inhibition (%)
Kindly answer with a numeric value in %, unit omitted.

// solved cases for inhibition follow
1. c1ccc(-c2cc(-c3cccs3)nc3c2Cc2ccccc2-3)cc1    56
2. Oc1ccccc1-c1cc(-c2ccccn2)nc2c1Cc1ccccc1-2    0.5
3. Oc1cccc(-c2cc(-c3ccccn3)nc3c2Cc2ccccc2-3)c1    2.4

For the compound Oc1ccc(-c2cc(-c3ccccn3)nc3c2Cc2ccccc2-3)cc1 , what inhibition is on record?
0

// query inhibition value for entry c1ccc(-c2cc(-c3ccccn3)nc3c2Cc2ccccc2-3)cc1
12.3

Endpoint output: inhibition of Oc1ccc(-c2cc(-c3ccco3)nc3c2Cc2ccccc2-3)cc1 . Value?
69.7

Record request: inhibition value, item Oc1ccccc1-c1cc(-c2ccncc2)nc2c1Cc1ccccc1-2
0

Data request, read-out inhibition, for Oc1ccc(-c2cc(-c3ccoc3)nc3c2Cc2ccccc2-3)cc1
1.4

---

target: DNA topoisomerase 2-alpha (Homo sapiens); experiment: Inhibition of human DNA topoisomerase-2alpha at 20 uM using supercoiled pBR322 DNA as substrate after 30 mins by ethidium bromide staining based agarose gel electrophoresis relative to control
Metric Name: inhibition (%)
Your answer is read as %, so omit the unit and give the number.

Example molecules with recorded inhibition:
1. Oc1ccc(-c2cc(-c3ccsc3)nc3c2Cc2ccccc2-3)cc1    65.9
2. Oc1ccccc1-c1cc(-c2ccsc2)nc2c1Cc1ccccc1-2    4.9
3. Oc1ccccc1-c1cc(-c2cccnc2)nc2c1Cc1ccccc1-2    10.5
4. Oc1ccc(-c2cc(-c3ccco3)nc3c2Cc2ccccc2-3)cc1    92.2
5. c1ccc(-c2cc(-c3ccco3)nc3c2Cc2ccccc2-3)cc1    5.7
6. Oc1cccc(-c2cc(-c3ccco3)nc3c2Cc2ccccc2-3)c1    36.9
7. Oc1cccc(-c2cc(-c3ccoc3)nc3c2Cc2ccccc2-3)c1    29.6
8. Oc1cccc(-c2cc(-c3ccsc3)nc3c2Cc2ccccc2-3)c1    22

For the molecule shown here, Oc1ccccc1-c1cc(-c2ccco2)nc2c1Cc1ccccc1-2 , give the reported inhibition.
20

Consider the molecule Oc1ccccc1-c1cc(-c2ccncc2)nc2c1Cc1ccccc1-2 and give its measured inhibition.
0.9

Which inhibition reading was recorded for the molecule Oc1ccc(-c2cc(-c3ccoc3)nc3c2Cc2ccccc2-3)cc1 ?
28

---

# reported inhibition; entries follow
target: UniProt:P11388; test: Inhibition of human DNA topoisomerase-2alpha at 100 uM using supercoiled pBR322 DNA as substrate after 30 mins by ethidium bromide staining based agarose gel electrophoresis relative to control
State the answer as a number, implicitly in %.

Recorded inhibition, per entry:
1) Oc1ccc(-c2cc(-c3ccccn3)nc3c2Cc2ccccc2-3)cc1    14.8
2) c1ccc(-c2cc(-c3ccncc3)nc3c2Cc2ccccc2-3)cc1    2.3
3) Oc1cccc(-c2cc(-c3ccco3)nc3c2Cc2ccccc2-3)c1    77.5

Now for the compound whose inhibition we want.
So what does the record say about inhibition for c1ccc(-c2cc(-c3ccccn3)nc3c2Cc2ccccc2-3)cc1 ?
0

---

In this section, each of the compounds is paired with its reported inhibition.
molecular target: DNA topoisomerase 1 (Homo sapiens) (UniProt P11387); test: Inhibition of human DNA topoisomerase-1 at 100 uM using supercoiled pBR322 DNA as substrate after 30 mins by ethidium bromide staining based agarose gel electrophoresis relative to control
Please answer using a numeric value trailed by its unit.

1) Oc1cccc(-c2cc(-c3cccnc3)nc3c2Cc2ccccc2-3)c1    1.5%
2) c1ccc(-c2cc(-c3ccoc3)nc3c2Cc2ccccc2-3)cc1    6.4%

Now examine the next entry.
Fill in the recorded inhibition for this compound, with DNA topoisomerase 1 (Homo sapiens) (UniProt P11387) as test system: Oc1ccc(-c2cc(-c3cccnc3)nc3c2Cc2ccccc2-3)cc1
0%
